System: Zymoseptoria tritici
Assay: Test A: wheat leaf blotch, preventive spray on wheat seedlings
Format: in vivo
Conditions: Zymoseptoria tritici, 50 ppm, 100 = 100% disease control, 0 = no control, read-out: Test A disease control rating
experimental.endpoint: pest or weed control at 50 ppm (%)
One number for each entry, in %.

Consider the following illustrative entries.
[
  {
    "test.smiles": "COc1cc(OC)c(Cl)c(-c2cn(C)c(=O)c(Cl)c2-c2ccc(F)cc2Cl)c1",
    "unit.of.measurement": "%",
    "pest or weed control at 50 ppm": 100
  },
  {
    "test.smiles": "COc1cc(OC)c(Cl)c(-c2cn(C)c(=O)c(Cl)c2-c2ccc(F)cc2F)c1",
    "unit.of.measurement": "%",
    "pest or weed control at 50 ppm": 100
  },
  {
    "test.smiles": "COc1cc(OC)c(Cl)c(-c2cn(C)c(=O)c(C)c2-c2ccc(F)cc2Cl)c1",
    "unit.of.measurement": "%",
    "pest or weed control at 50 ppm": 100
  },
  {
    "test.smiles": "COc1ccc(Cl)c(-c2cn(C)c(=O)c(Cl)c2-c2ccc(F)cc2F)c1",
    "unit.of.measurement": "%",
    "pest or weed control at 50 ppm": 100
  },
  {
    "test.smiles": "COc1ccc(Br)c(-c2cn(C)c(=O)c(Cl)c2-c2ccc(F)cc2F)c1",
    "unit.of.measurement": "%",
    "pest or weed control at 50 ppm": 100
  },
  {
    "test.smiles": "COc1cc(OC)c(Br)c(-c2cn(C)c(=O)c(Cl)c2-c2ccc(F)cc2F)c1",
    "unit.of.measurement": "%",
    "pest or weed control at 50 ppm": 100
  },
  {
    "test.smiles": "COc1cc(OC)cc(-c2cn(OC)c(=O)c(Cl)c2-c2ccc(F)cc2Cl)c1",
    "unit.of.measurement": "%",
    "pest or weed control at 50 ppm": 58
  },
  {
    "test.smiles": "COc1cc(OC)c(Cl)c(-c2cn(OC)c(=O)c(Cl)c2-c2ccc(F)cc2Cl)c1",
    "unit.of.measurement": "%",
    "pest or weed control at 50 ppm": 99
  },
  {
    "test.smiles": "COc1cc(OC)c(F)c(-c2cn(C)c(=O)c(Cl)c2-c2ccc(F)cc2F)c1",
    "unit.of.measurement": "%",
    "pest or weed control at 50 ppm": 100
  },
  {
    "test.smiles": "COc1cc(OC)c(Cl)c(-c2cn(OC(F)F)c(=O)c(Cl)c2-c2ccc(F)cc2Cl)c1",
    "unit.of.measurement": "%",
    "pest or weed control at 50 ppm": 96
  }
]

Parameters: items (list). Returns: pest or weed control at 50 ppm for each item.
1. COc1cc(OC)c(Cl)c(-c2cn(O)c(=O)c(Cl)c2-c2ccc(F)cc2Cl)c1
2. COc1ccc(Cl)c(-c2cn(C)c(=O)c(Cl)c2-c2ccc(F)cc2Cl)c1

[69, 100]

* * *

Test system: Botrytis cinerea
Assay: Test E: tomato Botrytis, preventive spray on tomato seedlings
Format: in vivo
Conditions: 50 ppm, 100 = 100% disease control, 0 = no control
The label Satisfied is reserved for Test E disease control rating strictly under 90%; Not satisfied covers values equal to or above it.

The examples below pair each entry with its known result.
[
  {
    "molecule": "Cn1cc(-c2sccc2Cl)c(-c2ccc(F)cc2Cl)c(Cl)c1=O [Compound 55]",
    "assigned.label": "Not satisfied"
  },
  {
    "molecule": "Cn1cc(-c2ccccc2C(F)(F)F)c(-c2ccc(F)cc2Cl)c(Cl)c1=O [Compound 27]",
    "assigned.label": "Satisfied"
  },
  {
    "molecule": "COc1ccc(Cl)c(-c2cn(C)c(=O)c(Cl)c2-c2ccc(C#N)cc2Cl)c1 [Compound 56]",
    "assigned.label": "Not satisfied"
  },
  {
    "molecule": "COc1cc(OC)cc(-c2cn(C)c(=O)c(Cl)c2-c2ccc(F)cc2F)c1 [Compound 25]",
    "assigned.label": "Satisfied"
  }
]

Next up:
# TODO verify Test E disease control rating < 90% strictly for this molecule: COc1ccc(F)c(-c2cn(C)c(=O)c(Cl)c2-c2ccc(F)cc2F)c1 [Compound 49]
Not satisfied

* * *

Please go through the items and note down their Test E disease control rating.
System: Botrytis cinerea
Test: Test E: tomato Botrytis, preventive spray on tomato seedlings
Assay type: in vivo
Conditions: 50 ppm, 100 = 100% disease control, 0 = no control

Consider the following illustrative entries.
[
  {
    "test.smiles": "COc1cc(-c2cn(C)c(=O)c(Cl)c2-c2ccc(F)cc2F)ccc1Br",
    "target.or.system": "Botrytis cinerea",
    "Test E disease control rating": "94%"
  },
  {
    "test.smiles": "COc1ccc(Cl)c(-c2cn(C)c(=O)cc2-c2cccc(F)c2F)c1",
    "target.or.system": "Botrytis cinerea",
    "Test E disease control rating": "96%"
  },
  {
    "test.smiles": "COc1ccc(Cl)c(-c2cn(C)c(=O)cc2-c2ccc(Br)cc2Cl)c1",
    "target.or.system": "Botrytis cinerea",
    "Test E disease control rating": "90%"
  },
  {
    "test.smiles": "Cc1cc(F)ncc1-c1cn(C)c(=O)c(Cl)c1-c1ccc(F)cc1Cl",
    "target.or.system": "Botrytis cinerea",
    "Test E disease control rating": "97%"
  },
  {
    "test.smiles": "COc1ccc(Cl)c(-c2cn(C)c(=O)c(Cl)c2-c2ccccc2F)c1",
    "target.or.system": "Botrytis cinerea",
    "Test E disease control rating": "98%"
  }
]

Here is the next item to consider.
// query Test E disease control rating value for entry COc1ccc(Cl)c(-c2cn(C)c(=O)c(Cl)c2-c2ccccc2Br)c1
91%

* * *

Test system: Botrytis cinerea
Test: Test E: tomato Botrytis, preventive spray on tomato seedlings
Format: in vivo
Conditions: 50 ppm, 100 = 100% disease control, 0 = no control
Please go through the items and note down their Test E disease control rating.
Give bare numbers, in %.

Consider the following illustrative entries.
[
  {
    "test.smiles": "Cn1cc(-c2cc(F)ccc2Cl)c(-c2ccc(F)cc2F)c(Cl)c1=O",
    "Test E disease control rating, %": 94
  },
  {
    "test.smiles": "Cn1cc(-c2ccc(F)cc2Cl)c(-c2ccc(F)cc2F)c(Cl)c1=O",
    "Test E disease control rating, %": 94
  },
  {
    "test.smiles": "Cn1cc(-c2ccc(F)cc2)c(-c2c(F)cccc2F)c(Cl)c1=O",
    "Test E disease control rating, %": 98
  },
  {
    "test.smiles": "CCn1cc(-c2cc(OC)ccc2Cl)c(-c2ccc(F)cc2Cl)c(Cl)c1=O",
    "Test E disease control rating, %": 98
  },
  {
    "test.smiles": "COc1ccc(Cl)c(-c2cn(C)c(=O)cc2-c2ccc(C#N)cc2Cl)c1",
    "Test E disease control rating, %": 95
  },
  {
    "test.smiles": "Cn1cc(-c2cc(F)ccc2F)c(-c2ccc(F)cc2Cl)c(Cl)c1=O",
    "Test E disease control rating, %": 85
  },
  {
    "test.smiles": "COc1ccc(Cl)c(-c2cn(C)c(=O)c(Cl)c2-c2cccc(F)c2F)c1",
    "Test E disease control rating, %": 96
  },
  {
    "test.smiles": "Cn1cc(-c2cccc([N+](=O)[O-])c2)c(-c2ccc(F)cc2Cl)c(Cl)c1=O",
    "Test E disease control rating, %": 79
  }
]

Here is the next item to consider.
// query Test E disease control rating value for entry Cn1cc(-c2ccccc2Cl)c(-c2ccc(F)cc2F)c(Cl)c1=O
96

* * *

Tested on: Botrytis cinerea
Experiment: Test E: tomato Botrytis, preventive spray on tomato seedlings
Format: in vivo
Conditions: 50 ppm, 100 = 100% disease control, 0 = no control
Please go through the items and note down their Test E disease control rating.
Answers are plain numbers, in %.

Consider the following illustrative entries.
[
  {
    "test.smiles": "COc1cc(OC)c(Cl)c(-c2cn(OCC(F)F)c(=O)c(Cl)c2-c2ccc(F)cc2Cl)c1",
    "target.or.system": "Botrytis cinerea",
    "Test E disease control rating, %": 88
  },
  {
    "test.smiles": "COc1ccc(Cl)c(-c2cn(C)c(=O)cc2-c2ccccc2Br)c1",
    "target.or.system": "Botrytis cinerea",
    "Test E disease control rating, %": 98
  },
  {
    "test.smiles": "CCCn1cc(-c2cc(OC)ccc2Cl)c(-c2ccc(F)cc2Cl)c(Cl)c1=O",
    "target.or.system": "Botrytis cinerea",
    "Test E disease control rating, %": 96
  }
]

Here is the next item to consider.
// query Test E disease control rating value for entry CCc1c(-c2ccc(F)cc2Cl)c(-c2cc(F)ccc2Cl)cn(C)c1=O
69

Reference source for all entries: patent US20240215577A1
